Measured values drawn from ChEMBL document CHEMBL1144468 for this set.

System: Staphylococcus aureus
assay method text: Antibacterial activity against Staphylococcus aureus RN4220 with rplC G152D, D159Y, G155R and A150T mutation
Format: functional
recorded endpoint: MIC (µg/mL)
Enter your answer as a number in µg/mL; do not include the unit.

Examples with answers:
1) O=C(N[C@H](CO)[C@H](O)c1ccc([N+](=O)[O-])cc1)C(Cl)Cl [CHLORAMPHENICOL] ... 8
2) C=C[C@]1(C)C[C@@H](OC(=O)CSCCN(CC)CC)[C@]2(C)[C@H](C)CC[C@]3(CCC(=O)[C@H]32)[C@@H](C)[C@@H]1O [TIAMULIN] ... 4

Moving on to another compound below.
Ask | Name the recorded MIC of the item C/C(=C\C(=O)OCCCCCCCCC(=O)O)C[C@@H]1OC[C@H](C[C@@H]2O[C@H]2[C@@H](C)[C@H](C)O)[C@@H](O)[C@H]1O [MUPIROCIN] in your answer.
Reply | 0.06
